# EXPERIMENT SUMMARY: qHTS assay to identify small molecule agonists of the sonic hedgehog signaling (Shh) pathway - cell viability counter screen (AID 1259366); note: nearly all actives have a fitted effect of over 50% in size
# MEASUREMENT PARAMETERS: NIH/3T3 Gli1-Luc viability, CellTiter-Fluor, 24 h; series mostly up to 92.4 µM
Inconclusive results are not listed. Calls of active or inactive are those of the source. Calls come from the whole dose curve; as a rule, active = well fitted cell-killing curve with a large enough effect in the repeat runs; inconclusive = weak or mixed curves, or effect the other way; inactive = flat fitted curve, though single readings scatter.
Select the correct class. Options are 1 (yes) for active, 0 (no) for inactive and nothing else.

Here are 6 molecules together with their reported answers.
>>> class_name("CC(=O)OC[C@H]1O[C@@H](n2ncc(=O)[nH]c2=O)[C@H](OC(C)=O)[C@@H]1OC(C)=O")
"0 (no)"
>>> class_name("CC(C)(CO)[N+](=O)[O-]")
"0 (no)"
>>> class_name("Cc1ncc(CO)c(C=O)c1O")
"0 (no)"
>>> class_name("CCN(CC)CCNC(=O)c1cc(Br)c(N)cc1OC")
"0 (no)"
>>> class_name("OC(CN1CCC(Cc2ccc(F)cc2)CC1)c1ccc(Cl)cc1 (stereo not given)")
"0 (no)"
>>> class_name("CN1Cc2cc(C(=O)N3CCC(C4CCNCC4)CC3)ccc2NC(CC(=O)O)C1=O (stereo not given)")
"0 (no)"

# input Tell me the recorded outcome of this test for `Cc1oc(-c2ccccc2)nc1CCOc1cccc2c1ccn2CCC(=O)O` .
# output 1 (yes)

# input Please indicate how the test categorized CCCCC(CC)CN1C(=O)C2C3C=CC(C3)C2C1=O (stereo not given) .
# output 0 (no)

# input Dear all, I need the recorded test outcome for O=C(NCC1CN(c2ccc(N3CCOCC3=O)cc2)C(=O)O1)c1ccc(Cl)s1 (stereo not given) , thank you.
# output 0 (no)

# input # lookup: test call for `C1CCCNCCC1`
# output 0 (no)

# input Which outcome did this test record for the molecule `O=C(O)c1ccc(-n2nc(-c3ccccc3O)nc2-c2ccccc2O)cc1` ?
# output 0 (no)
